assay: CHOP2 Reporter Counterscreen Assay for Inhibitors of Ubiquitin-specific Protease USP2a; conditions: purified enterokinase, fluorogenic substrate, 485/531 nm; series mostly up to 38.3 µM;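 further: activated enterokinase alone at 50 pM in a cell-free format rather than USP2a or CHOP2; nearly all actives have a fitted effect of over 55% in size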
Records with an inconclusive call do not appear. The source made the active and inactive calls. The call rests on the fitted dose curve; in most records, active means well fitted inhibition curve with a large enough effect; inconclusive means small, poorly fitted or top-dose-only effect; inactive means flat fitted curve, though single readings scatter.
Returns: one label drawn from YES for active, NO for inactive

>>> group_label("Cc1sc2nc(CN3CCN(c4ccc(O)cc4)CC3)[nH]c(=O)c2c1C")
"NO"
>>> group_label("O=C(COC(=O)c1c2c(nc3ccccc13)/C(=C/c1ccco1)CC2)NC1CCCC1")
"YES"
>>> group_label("Cc1ccc(/C(N)=N/OC(=O)Oc2ccccc2)cc1")
"NO"

Record lookup: outcome of this test for CCc1c(O)nc(SCC(=O)Nc2ccccc2OC)[nH]c1=O ?
NO

Record lookup: outcome of this test for O=C(Nc1ccccc1)c1cc(Cl)nc2ccccc12 ?
NO

Record lookup: outcome of this test for CCCCCCCCCCCCCCCCn1cc[n+](C)c1 ?
YES

Record lookup: outcome of this test for CC(C)n1c(/C=C/[C@H](O)C[C@H](O)CC(=O)O)c(-c2ccc(F)cc2)c2ccccc21 ?
NO

Record lookup: outcome of this test for CCc1ccccc1OCC(=O)Nc1ccc(N2CCCC2)cc1C ?
YES

---

experiment: CHOP2 Reporter Counterscreen Assay for Inhibitors of Ubiquitin-specific Protease USP2a; settings: purified enterokinase, fluorogenic substrate, 485/531 nm; series mostly up to 38.3 µM;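 further: activated enterokinase alone at 50 pM in a cell-free format rather than USP2a or CHOP2; nearly all actives have a fitted effect of over 55% in size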
Inconclusive results are not listed. Activity calls are given as the source filed them. Calls come from the whole dose curve; as a rule, active = well fitted inhibition curve with a large enough effect; inconclusive = small, poorly fitted or top-dose-only effect; inactive = flat fitted curve, though single readings scatter.
Returns: one label drawn from active, inactive

Record lookup: outcome of this test for O=C(Nc1cccc(C(F)(F)F)c1)/C(=C\c1ccco1)NC(=O)c1cccs1 ?
inactive

Record lookup: outcome of this test for O=C(Nc1ccc(N2CCCC2)cc1)c1ccc(Br)cc1 ?
active

Record lookup: outcome of this test for CC1CC(C)CN(C(=O)CSc2nnc(-c3ccc(Cl)cc3)o2)C1 (stereo not given) ?
inactive

Record lookup: outcome of this test for Cc1cc(Cl)ccc1NC(=S)NCCCN1CCCC1=O ?
inactive

Record lookup: outcome of this test for Cc1nn(C)cc1CNC(=O)c1ccc(Br)o1 ?
inactive

---

assay: CHOP2 Reporter Counterscreen Assay for Inhibitors of Ubiquitin-specific Protease USP2a; conditions: purified enterokinase, fluorogenic substrate, 485/531 nm; series mostly up to 38.3 µM;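 further: activated enterokinase alone at 50 pM in a cell-free format rather than USP2a or CHOP2; nearly all actives have a fitted effect of over 55% in size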
Results filed as inconclusive are left out. Activity calls are given as the source filed them. Calls follow the shape of the dose curve; as a rule, active = well fitted inhibition curve with a large enough effect; inconclusive = small, poorly fitted or top-dose-only effect; inactive = flat fitted curve, though single readings scatter.
Returns: one label drawn from TRUE (active), FALSE (inactive)

Reference set, count: 10
>>> group_label("N#CC(c1ccccc1)c1ccc(C(=O)c2ccc(F)cc2)cc1 (stereo not drawn)")
"FALSE"
>>> group_label("COc1ccc(OCC(=O)NCCNC(=O)c2cccnc2)cc1")
"FALSE"
>>> group_label("O=C(C1CCCN(S(=O)(=O)c2cccc3cccnc23)C1)N1CCN(c2ccccc2F)CC1 (stereo not drawn)")
"FALSE"
>>> group_label("COc1cccc(OC)c1-c1nn2c(-c3cc(-c4ccccc4)n[nH]3)nnc2s1")
"TRUE"
>>> group_label("COc1ccccc1NC(=O)N1CCN(c2ccccn2)CC1")
"FALSE"
>>> group_label("CCOc1ccc2[nH]c(=O)c(CN(Cc3nnnn3Cc3ccco3)C3CCCCC3)cc2c1")
"FALSE"
>>> group_label("O=[N+]([O-])c1cc(-c2ccc(/C=N\\n3cnnc3)o2)cc([N+](=O)[O-])c1")
"TRUE"
>>> group_label("CCOC(=O)N1CCN(S(=O)(=O)c2ccc(C)cc2)C1c1ccc(OC)cc1 (stereo not drawn)")
"FALSE"
>>> group_label("CCCc1nc(SCC(N)=O)[nH]c(=O)c1CC")
"FALSE"
>>> group_label("C#CCOCCOCCOCCNc1nc(N2CCN(C(=O)CCCCCCCCCCNC(=O)[C@@H](CCC(=O)O)n3cc(CCCCCN)nn3)CC2)nc(N2CCN(C(=O)CCCCCCCCCCNC(=O)[C@H]([C@@H](C)CC)n3cc(CCCCCN)nn3)CC2)n1")
"TRUE"

Record lookup: outcome of this test for O=[N+]([O-])c1cc(-c2nnc(Nc3ccccc3)c3ccccc23)ccc1N1CCOCC1 ?
FALSE

Record lookup: outcome of this test for O=C1/C(=C/C=C/c2ccco2)SC(=S)N1NS(=O)(=O)c1ccccc1 ?
TRUE

Record lookup: outcome of this test for Cc1ccc(O)c(CC(C)C)n1 ?
FALSE

Record lookup: outcome of this test for CCCSCCCNC(=O)CC1Oc2ccccc2NC1=O (stereo not drawn) ?
FALSE

Record lookup: outcome of this test for Cn1ccc(=Nc2ccc(NC(=O)c3ccc(N=c4ccn(C)c5ccc([N+](=O)[O-])cc45)cc3)cc2)cc1 ?
FALSE
